settings: pH 2.7
Reported logp [b] values follow for various compounds

Look over these answered cases.
>>> observed_measurement("FC(F)CNc1nc(Nc2ccsc2)ncc1Cl")
"1.88[b]"
>>> observed_measurement("CSc1ccc(Nc2ncc(Br)c(NC3CC3)n2)s1")
"3.02[b]"
>>> observed_measurement("Clc1cnc(Nc2ccsc2)nc1NC1CCC1")
"1.96[b]"
>>> observed_measurement("C=CCN(C)C(=O)c1cc(Nc2ncc(Cl)c(NC3CC3)n2)cs1")
"1.89[b]"

Need logp [b] of "COCCNC(=O)c1cc(Nc2ncc(Cl)c(NC3CC3)n2)cs1" , thanks.
1.38[b]

###

# logp [a] values compiled below
details: pH 2.3

>>> observed_measurement("N#Cc1csc(Nc2ncc(Cl)c(NC3CC3)n2)c1 [Example 12]")
"2.55[a]"
>>> observed_measurement("CCN(CC)C(=O)c1cc(Nc2ncc(Cl)c(NC3CC3)n2)cs1 [Example 9]")
"1.62[a]"
>>> observed_measurement("O=C(c1cc(Nc2ncc(Cl)c(NC3CC3)n2)cs1)N1CCCCC1 [Example 7]")
"1.68[a]"
>>> observed_measurement("N#Cc1cc(Nc2ncc(Cl)c(NC3CC3)n2)cs1 [Example 14]")
"2.23[a]"
>>> observed_measurement("CC1CC1Nc1nc(Nc2ccsc2)ncc1Cl (mixture of isomers) [Example 17]")
"1.97[a]"
>>> observed_measurement("CC(C)N(C)C(=O)c1cc(Nc2ncc(Cl)c(NC3CC3)n2)cs1 [Example 8]")
"1.6[a]"

What does the record list as logp [a] for CC(=O)c1cc(Nc2ncc(Cl)c(NC3CC3)n2)cs1 [Example 13] ?
1.44[a]
